tested.target: Dual specificity tyrosine-phosphorylation-regulated kinase 2 (Homo sapiens) (UniProt Q92630);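 note: values are mean percent inhibition of DYRK2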
Sequence (whole entry): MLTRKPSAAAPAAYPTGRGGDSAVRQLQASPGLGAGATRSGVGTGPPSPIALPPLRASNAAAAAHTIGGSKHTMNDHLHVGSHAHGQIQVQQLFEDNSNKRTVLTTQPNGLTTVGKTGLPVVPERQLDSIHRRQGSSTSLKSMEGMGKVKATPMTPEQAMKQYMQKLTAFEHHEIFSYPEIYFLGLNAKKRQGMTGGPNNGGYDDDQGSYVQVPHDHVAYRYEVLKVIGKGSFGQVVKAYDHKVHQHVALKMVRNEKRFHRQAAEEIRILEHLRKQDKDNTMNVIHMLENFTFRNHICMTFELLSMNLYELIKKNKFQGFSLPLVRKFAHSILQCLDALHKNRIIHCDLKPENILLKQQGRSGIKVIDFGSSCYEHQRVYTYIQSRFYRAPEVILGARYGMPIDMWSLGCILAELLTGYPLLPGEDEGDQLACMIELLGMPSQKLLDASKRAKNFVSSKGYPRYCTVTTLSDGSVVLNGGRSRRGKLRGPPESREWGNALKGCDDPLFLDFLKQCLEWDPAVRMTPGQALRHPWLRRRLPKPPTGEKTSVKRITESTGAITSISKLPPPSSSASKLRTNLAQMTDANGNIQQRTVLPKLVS
run.parameters: at 0.1 µM
endpoint: inhibition (%)
One number for each entry, in %.

// known answers, use as guide
Lookup: Please report the measured inhibition for `Cc1ccc2c(-c3ccnc(Nc4ccc5c(c4)OCCO5)n3)c(-c3ccc(C(F)(F)F)cc3)nn2n1`
Found: -0.27

Lookup: Please report the measured inhibition for `Cc1ccc(O)cc1Nc1ccnc2ccc(S(C)(=O)=O)cc12`
Found: 3.03

Lookup: Please report the measured inhibition for `N#Cc1cccc(Nc2nccc(-c3cnn4ncccc34)n2)c1`
Found: 20.3

Lookup: Please report the measured inhibition for `Cc1cc(Cl)cc2c1NC(=O)C2=NNc1ccc(S(N)(=O)=O)cc1`
Found: 0.8

Let us move to another entry and its inhibition.
Lookup: Please report the measured inhibition for `CCn1c(-c2nonc2N)nc2c(C#CC(C)(C)O)nc(OCCNC)cc21`
Found: 5.86

###

tested.target: Serine/threonine-protein kinase PAK 6 (Homo sapiens) (UniProt Q9NQU5);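 note: mean PAK6 inhibition reported from the GSK PKIS screen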
Sequence (Q9NQU5 whole entry, looked up): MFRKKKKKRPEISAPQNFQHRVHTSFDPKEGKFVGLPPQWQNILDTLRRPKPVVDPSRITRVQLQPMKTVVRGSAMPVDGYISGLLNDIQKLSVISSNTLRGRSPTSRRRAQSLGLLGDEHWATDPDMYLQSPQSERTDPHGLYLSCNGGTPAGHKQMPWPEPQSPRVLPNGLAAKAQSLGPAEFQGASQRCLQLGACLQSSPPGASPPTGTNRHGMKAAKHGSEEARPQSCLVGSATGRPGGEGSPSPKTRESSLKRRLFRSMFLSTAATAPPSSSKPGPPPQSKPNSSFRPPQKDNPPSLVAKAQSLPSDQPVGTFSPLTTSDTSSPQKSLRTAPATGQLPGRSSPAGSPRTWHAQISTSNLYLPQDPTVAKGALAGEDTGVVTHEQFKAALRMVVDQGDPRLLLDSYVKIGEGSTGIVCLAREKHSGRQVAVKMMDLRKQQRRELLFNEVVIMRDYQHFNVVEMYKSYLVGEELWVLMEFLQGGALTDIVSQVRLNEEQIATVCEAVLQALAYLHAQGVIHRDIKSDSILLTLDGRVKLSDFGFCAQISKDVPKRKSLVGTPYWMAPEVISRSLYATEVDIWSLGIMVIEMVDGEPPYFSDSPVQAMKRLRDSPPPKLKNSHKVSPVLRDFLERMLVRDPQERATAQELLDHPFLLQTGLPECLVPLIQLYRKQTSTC
run.parameters: at 0.1 µM
endpoint: inhibition (%)
Numbers only, in %.

// known answers, use as guide
Lookup: Please report the measured inhibition for `CC(C)c1ccc2c(c1)NC(=O)/C2=N/Nc1ccc(S(N)(=O)=O)cc1`
Found: -8.22

Lookup: Please report the measured inhibition for `Nc1nccc(-c2c(-c3ccc(F)cc3)nn3cc(C(F)(F)F)ccc23)n1`
Found: 3.48

Lookup: Please report the measured inhibition for CCCN1CCCC(c2ccc(Nc3nc(Nc4cc(F)ccc4C(N)=O)c4cc[nH]c4n3)c(OC)c2)C1 (stereo unspecified)
Found: 2

Lookup: Please report the measured inhibition for `NS(=O)(=O)c1ccc(NC=C2C(=O)Nc3ccc4ncsc4c32)cc1`
Found: 0.36

Batch lookup, inhibition per entry.
1. CCOc1nccc2c1nc(-c1nonc1N)n2CC
2. Nc1ccc(C#Cc2cncnc2Nc2ccc(OCc3cccc(F)c3)c(Cl)c2)cc1
3. NS(=O)(=O)c1cccc(-c2cc3ccncc3cc2OCc2ccccc2)c1
4. COc1cc(Nc2nccc(-c3cnn4ncccc34)n2)cc(OC)c1

Found:
[5.85, -4.23, -0.02, -2.46]

Batch lookup, inhibition per entry.
1. CN(C)c1cc2c(Nc3ccc4c(cnn4Cc4ccccc4)c3)ncnc2cn1
2. N#Cc1cccc(Nc2nccc(-c3cnn4ncccc34)n2)c1

Found:
4.32
-4.74

Batch lookup, inhibition per entry.
1. Cc1cc(Cl)cc2c1NC(=O)C2=NNc1ccc(S(N)(=O)=O)cc1
2. CN(C)CCCn1c(-c2nonc2N)nc2cnccc21
3. c1ccc(Cc2nc3ccc(Nc4ncnc5ccccc45)cc3[nH]2)cc1

Found:
1: 2.65; 2: 7.58; 3: -3.41

###

tested.target: Homeodomain-interacting protein kinase 4 (Homo sapiens) (UniProt Q8NE63);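 note: values are mean percent inhibition of HIPK4 from the GSK PKIS kinase screen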
Sequence (Q8NE63 whole entry): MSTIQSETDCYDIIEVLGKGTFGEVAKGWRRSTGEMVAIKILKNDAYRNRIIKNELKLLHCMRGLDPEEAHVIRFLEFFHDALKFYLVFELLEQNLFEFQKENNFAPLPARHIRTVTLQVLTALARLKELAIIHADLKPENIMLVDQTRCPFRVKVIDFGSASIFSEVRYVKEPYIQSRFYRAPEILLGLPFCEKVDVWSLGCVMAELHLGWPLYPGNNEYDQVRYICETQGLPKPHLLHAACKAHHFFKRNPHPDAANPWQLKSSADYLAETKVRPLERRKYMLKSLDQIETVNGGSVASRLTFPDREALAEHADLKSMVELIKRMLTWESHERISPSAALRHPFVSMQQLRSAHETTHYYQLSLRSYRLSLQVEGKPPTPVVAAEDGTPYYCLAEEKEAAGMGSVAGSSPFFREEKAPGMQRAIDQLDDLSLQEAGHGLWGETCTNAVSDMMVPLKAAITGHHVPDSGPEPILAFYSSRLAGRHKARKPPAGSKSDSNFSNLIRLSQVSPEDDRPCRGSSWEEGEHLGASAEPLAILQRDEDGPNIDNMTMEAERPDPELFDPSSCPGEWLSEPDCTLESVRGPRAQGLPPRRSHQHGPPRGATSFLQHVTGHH
run.parameters: at 1 µM
Returns one of satisfied or not satisfied; satisfied when inhibition is >= 8%.

Worked cases, answers included:
Lookup: Exam item: decide whether the reported inhibition for `CN(C)C(=O)O[C@H]1CN[C@H](C#Cc2cc3ncnc(Nc4ccc(OCc5cccc(F)c5)c(Cl)c4)c3s2)C1` is at least 8%.
Found: not satisfied

Lookup: Exam item: decide whether the reported inhibition for `C[C@@H](Oc1cc(-n2cnc3ccc(OCC4CCN(C)CC4)cc32)sc1C(N)=O)c1ccccc1C(F)(F)F` is at least 8%.
Found: satisfied

Lookup: Exam item: decide whether the reported inhibition for `CCS(=O)(=O)c1ccc(OC)c(Nc2ncc(-c3cccc(OC)c3)o2)c1` is at least 8%.
Found: satisfied

With those in mind, consider the next molecule.
Lookup: Exam item: decide whether the reported inhibition for `O=C1Nc2ccccc2/C1=C/Nc1ccc2[nH]c(=O)[nH]c2c1` is at least 8%.
Found: not satisfied

###

tested.target: ALK tyrosine kinase receptor (Homo sapiens) (UniProt Q9UM73);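 note: values are mean percent inhibition of ALK, screened as part of the GSK PKIS panel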
Sequence (Q9UM73 19-1620 limits assumed): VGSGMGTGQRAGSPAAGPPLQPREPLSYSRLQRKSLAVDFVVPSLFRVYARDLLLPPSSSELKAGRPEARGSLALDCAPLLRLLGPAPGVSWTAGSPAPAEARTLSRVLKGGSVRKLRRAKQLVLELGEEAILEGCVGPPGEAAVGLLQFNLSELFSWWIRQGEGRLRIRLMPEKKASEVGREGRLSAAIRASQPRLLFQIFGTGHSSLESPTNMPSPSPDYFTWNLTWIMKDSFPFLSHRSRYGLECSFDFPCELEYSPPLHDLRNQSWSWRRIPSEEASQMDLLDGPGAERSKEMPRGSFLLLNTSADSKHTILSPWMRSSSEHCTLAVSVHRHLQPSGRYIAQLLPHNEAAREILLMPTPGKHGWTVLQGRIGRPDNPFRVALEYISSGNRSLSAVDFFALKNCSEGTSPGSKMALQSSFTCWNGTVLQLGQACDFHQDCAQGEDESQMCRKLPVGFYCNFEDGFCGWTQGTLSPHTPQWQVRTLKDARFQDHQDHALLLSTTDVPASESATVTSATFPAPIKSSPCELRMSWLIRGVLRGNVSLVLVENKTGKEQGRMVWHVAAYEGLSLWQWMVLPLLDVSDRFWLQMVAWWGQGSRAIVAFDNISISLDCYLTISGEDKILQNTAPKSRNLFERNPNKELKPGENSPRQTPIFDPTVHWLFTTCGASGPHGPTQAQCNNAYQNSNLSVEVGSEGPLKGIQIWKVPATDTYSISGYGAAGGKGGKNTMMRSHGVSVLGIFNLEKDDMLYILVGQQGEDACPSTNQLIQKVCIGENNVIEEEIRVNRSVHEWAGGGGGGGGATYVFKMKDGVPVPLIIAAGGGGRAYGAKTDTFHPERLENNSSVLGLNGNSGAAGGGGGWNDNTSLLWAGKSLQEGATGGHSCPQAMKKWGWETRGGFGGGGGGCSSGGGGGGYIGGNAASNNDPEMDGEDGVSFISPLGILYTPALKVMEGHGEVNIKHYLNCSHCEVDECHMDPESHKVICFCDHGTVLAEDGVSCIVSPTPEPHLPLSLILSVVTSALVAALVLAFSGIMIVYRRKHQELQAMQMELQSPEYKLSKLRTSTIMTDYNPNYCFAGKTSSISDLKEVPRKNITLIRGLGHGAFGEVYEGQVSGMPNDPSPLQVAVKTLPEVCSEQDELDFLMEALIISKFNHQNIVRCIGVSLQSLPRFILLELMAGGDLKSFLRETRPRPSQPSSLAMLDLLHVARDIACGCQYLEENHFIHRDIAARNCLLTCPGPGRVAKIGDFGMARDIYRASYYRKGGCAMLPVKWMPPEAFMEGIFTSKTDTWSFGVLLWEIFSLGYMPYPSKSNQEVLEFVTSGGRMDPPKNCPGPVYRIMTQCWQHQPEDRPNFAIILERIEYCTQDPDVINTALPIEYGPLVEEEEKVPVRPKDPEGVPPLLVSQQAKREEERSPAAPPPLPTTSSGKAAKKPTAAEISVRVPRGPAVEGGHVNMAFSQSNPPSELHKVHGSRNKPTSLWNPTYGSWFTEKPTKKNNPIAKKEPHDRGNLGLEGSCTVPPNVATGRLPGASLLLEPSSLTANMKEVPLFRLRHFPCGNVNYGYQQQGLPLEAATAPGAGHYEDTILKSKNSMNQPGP
run.parameters: at 1 µM
Returns one of TRUE or FALSE; TRUE when inhibition is >= 8%.

Worked cases, answers included:
Lookup: Exam item: decide whether the reported inhibition for `CN1CCN(C(=O)c2ccc(NC(=O)Nc3ccc(N(C)c4ccnc(Nc5ccc(CS(C)(=O)=O)cc5)n4)cc3)cc2)CC1` is at least 8%.
Found: TRUE

Lookup: Exam item: decide whether the reported inhibition for `CN(C)C(=O)O[C@H]1CN[C@H](C#Cc2cc3ncnc(Nc4ccc(OCc5cccc(F)c5)c(Cl)c4)c3s2)C1` is at least 8%.
Found: FALSE

Lookup: Exam item: decide whether the reported inhibition for `O=C(Nc1ccc(Oc2ccc3[nH]c(NC(=O)c4ccco4)nc3c2)cc1)Nc1cc(C(F)(F)F)ccc1F` is at least 8%.
Found: FALSE

Lookup: Exam item: decide whether the reported inhibition for `COc1cc2ncnc(Nc3ccc4c(cnn4Cc4ccccc4)c3)c2cc1OC` is at least 8%.
Found: FALSE

Further cases:
Lookup: Exam item: decide whether the reported inhibition for `NC(=O)c1cccc(Nc2nccc(Nc3cccc(F)c3)n2)c1` is at least 8%.
Found: TRUE

Lookup: Exam item: decide whether the reported inhibition for `Cc1nc(-c2ccccc2)n2nc(NCCCN3CCOCC3)ncc12` is at least 8%.
Found: FALSE

Lookup: Exam item: decide whether the reported inhibition for `CC(C)c1ccc(Nc2nccc(-c3cnn4ncccc34)n2)cc1` is at least 8%.
Found: TRUE

Lookup: Exam item: decide whether the reported inhibition for `N#Cc1cccc(Nc2nccc(-c3cnn4ncccc34)n2)c1` is at least 8%.
Found: TRUE

Lookup: Exam item: decide whether the reported inhibition for `COC(=O)c1cncc(/C=C/c2c(C)cc(O)cc2C)c1` is at least 8%.
Found: FALSE

Lookup: Exam item: decide whether the reported inhibition for CCCN1CCCC(c2ccc(Nc3nc(Nc4cc(F)ccc4C(N)=O)c4cc[nH]c4n3)c(OC)c2)C1 (stereo not drawn) is at least 8%.
Found: TRUE

Lookup: Exam item: decide whether the reported inhibition for `Nc1nccc(-c2c(-c3ccc(F)cc3)ncn2CCCN2CCOCC2)n1` is at least 8%.
Found: FALSE

###

tested.target: Glycogen synthase kinase-3 alpha (Homo sapiens) (UniProt P49840);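 note: values are mean inhibition of GSK3A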
Sequence (P49840 2-483 limits assumed): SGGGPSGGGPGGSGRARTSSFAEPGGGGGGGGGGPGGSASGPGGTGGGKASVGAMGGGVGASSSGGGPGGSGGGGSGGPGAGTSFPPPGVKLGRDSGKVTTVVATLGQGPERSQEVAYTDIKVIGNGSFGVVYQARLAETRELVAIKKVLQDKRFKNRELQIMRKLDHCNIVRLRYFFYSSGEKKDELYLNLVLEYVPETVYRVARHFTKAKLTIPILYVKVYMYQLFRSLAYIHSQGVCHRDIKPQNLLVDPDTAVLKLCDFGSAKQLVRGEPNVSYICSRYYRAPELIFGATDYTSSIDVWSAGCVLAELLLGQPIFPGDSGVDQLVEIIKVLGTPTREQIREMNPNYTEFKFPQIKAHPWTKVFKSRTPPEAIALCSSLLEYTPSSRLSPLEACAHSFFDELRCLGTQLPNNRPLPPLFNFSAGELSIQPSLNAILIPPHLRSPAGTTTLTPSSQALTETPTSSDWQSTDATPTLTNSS
run.parameters: at 0.1 µM
I'd be grateful if you could share measured inhibition for these entries.
Numbers only, in %.

Lookup: Please report the measured inhibition for `Cc1ccc(NC(=O)CC2CC2)cc1-c1ccc(C(=O)NCC2CC2)cc1`
Found: 2.32

Lookup: Please report the measured inhibition for `CCOc1nccc2c1nc(-c1nonc1N)n2CC`
Found: 3.1

Lookup: Please report the measured inhibition for `Cc1ccc(O)cc1Nc1ccnc2ccc(S(C)(=O)=O)cc12`
Found: 2.64

Lookup: Please report the measured inhibition for `CN(C)C(=O)O[C@H]1CN[C@H](C#Cc2cc3ncnc(Nc4ccc(OCc5cccc(F)c5)c(Cl)c4)c3s2)C1`
Found: 1.64

Lookup: Please report the measured inhibition for `NS(=O)(=O)c1ccc(NC=C2C(=O)Nc3ccc4ncsc4c32)cc1`
Found: 40.4

Lookup: Please report the measured inhibition for `[O-][S+]1CCN(Cc2ccc(-c3ccc4ncnc(Nc5ccc(OCc6ccccc6)c(Cl)c5)c4c3)o2)CC1`
Found: 1.1

Lookup: Please report the measured inhibition for `Nc1nccc(C#Cc2cncnc2Nc2ccc(OCc3cccc(F)c3)c(Cl)c2)n1`
Found: 4.01

Lookup: Please report the measured inhibition for `CN(C)CCCn1c(-c2nonc2N)nc2cnccc21`
Found: 2.45

Lookup: Please report the measured inhibition for `Cc1ccc(C(=O)NC2CC2)cc1-c1ccc2[nH]ncc2c1`
Found: -1.07

Lookup: Please report the measured inhibition for `Oc1cccc(-c2nc(-c3ccccc3)[nH]c2-c2ccncc2)c1`
Found: 5.29

Let us move to another entry and its inhibition.
Lookup: Please report the measured inhibition for `CN(C)c1cc2c(Nc3ccc4c(cnn4Cc4ccccc4)c3)ncnc2cn1`
Found: 1.84
